method-summary: TLR3 IRF3 reporter activation blockers – cell-based, poly I:C stimulus, luciferase, 10K MLSCN set, primary screen (AID 602277)
experimental-parameters: HEK293-TLR3 RL24 IRF3 luciferase reporter, at 10 µM, active compounds read high
Record form. Attribute: inhibition. Fill in for each entry.
Lab book: enter the figure in %, no units written.

Fill in: inhibition of CCOC(=O)c1oc2ccccc2c1CSc1nnnn1-c1ccc(OC)cc1 is ___
30.2

O=C(NCc1nnc(SCC(=O)N2CCCCCC2)o1)c1ccco1 , same question.
11

CC(Oc1ccc(Br)cc1)C(=O)N1CCc2ccccc21 (stereo unspecified) , same question.
-9.35

Cc1cc(NS(=O)(=O)c2ccc(NC(=O)COc3ccc(Cl)cc3)cc2)no1 , same question.
19.8

COCCOC(=O)C1=C(N)OC2=C(C(=O)CC(C)(C)C2)C1c1cccnc1 (stereo unspecified) , same question.
19

COc1ccc(OC)c(C(=O)c2nc3c(n2O)CCCCC3)c1 , same question.
7.03

COC(=O)CCC(NC(=O)c1cc(-c2ccc3c(c2)OCCO3)oc1C)C(=O)OC (stereo unspecified) , same question.
-6.77

CCS(=O)(=O)c1ccc(S(=O)(=O)CC)s1 , same question.
17.4

CCC(=O)Oc1ccc(C/C(=N\O)c2ccc(O)cc2O)o1 , same question.
-21.3

COc1ccc(OCCOC(=O)c2cccc(-n3cnnn3)c2)cc1 , same question.
-15.7

O=C(CSc1ncccn1)c1ccccc1Br , same question.
-65.9
